The reported numbers originate from patent US6087361A.

For each entry below, report its pKi value.
# system: α1
# assay-name: Receptor binding, [3H]prazosin, human cerebral cortex membranes (HCC)
# condition-label: 22° C., 30 min
# Experimental: Tissue preparation: Membrane suspensions were prepared from human cerebral cortex ([…], for α1 receptors) obtained from the UCI Organ and Tissue Bank. […] Binding Studies: The radioligands [^3 H]rauwolscine (specific activity 80 Ci/mmol) and [^3 H]prazosin (specific activity 76 Ci/mmol) were obtained from New England Nuclear, Boston, Mass. […] The filters were then oven dried and transferred to scintillation vials containing 10 mL of Beckman's Ready Protein® scintillation cocktail for counting. […]
Answers are plain numbers, as −log10 of the molar value.

1) Cc1cc(C(C)(C)C)c(O)c(C)c1CC1=NCCN1 [Example 23] | 6.70

Your task in this section: give pKi for each listed record.
1. Cc1c(NC2=NCCN2)ccc2c1NCCO2 [Example 16]
2. COc1ccc(Nc2ncc[nH]2)c(C)c1 [Example 19]
3. COc1c(C(C)(C)C)cc(C)c(Nc2ncc[nH]2)c1C [Example 22]
4. Brc1c(NC2=NCCN2)ccc2nccnc12 [Example 5]
5. Cc1c(Nc2ncc[nH]2)ccc2c1NCCO2 [Example 17]
6. Cc1c(Nc2ncc[nH]2)ccc2nccnc12 [Example 24]
7. COc1ccc(NC2=NCCN2)c(C)c1OC [Example 12]
8. Cc1cccc(Nc2ncc[nH]2)c1C [Example 18]

1. 6.33
2. 5.12
3. 5.38
4. 5.73
5. 4.83
6. 4.51
7. 5.84
8. 5.28

Your task in this section: give pKi for each listed record.
1. c1cc2c(cc1NC1=NCCN1)OCCO2 [Example 11]
2. Cc1c(NC2=NCCN2)ccc2c1OCCO2 [Example 13]
3. CC1CNc2c(ccc(NC3=NCCN3)c2Br)N1 (stereo not shown) [Example 10]

[5.62, 6.89, 5.18]

Your task in this section: give pKi for each listed record.
1. Nc1cc(Cl)c(NC2=NCCN2)c(Cl)c1 [Example 3]
2. Cc1c(NC2=NCCN2)ccc2c1NC(=O)CO2 [Example 15]

1. 6.74
2. 5.65

Your task in this section: give pKi for each listed record.
1. O=C1COc2ccc(NC3=NCCN3)cc2N1 [Example 14]
2. Cc1c(Nc2ncc[nH]2)ccc2c1OCCO2 [Example 21]

1: 5.05; 2: 5.67
